Reference source: PubChem BioAssay (NCI)

Tested on: SNB-75 CNS
assayRemarks: NCI tumour cell line growth inhibition, 48 h
readout: TGI

These solved cases illustrate the format of a correct answer.
O=c1c2ccccc2nc(-c2ccccc2Cl)n1NCC1(O)OCC(O)C(O)C1O (centres undefined) | > 100 µM
O=C(OC1C=C=CS(=O)(=O)CC#C/C=C\1)c1cnc2ccccc2n1 (centres undefined) | > 100 µM
CC(=O)Nc1cccc(C#Cc2cncnc2Nc2ccc(OCc3cccc(F)c3)c(Cl)c2)n1 | > 25 µM

**Q:** Name the recorded TGI of the molecule listed here: `CNS(=O)(=O)NN(C)S(=O)(=O)c1ccc(OC)cc1`
**A:** > 100 µM
